Provide the recorded RP-LC retention time for the entries that follow.
# method-description: gradient 5% acetonitrile 3 min, to 50% in 2 min, to 85% in 15 min, held 3 min, 100 µL/min
# test-conditions: column: Zorbax Extend-C18 2.1 x 50 mm; eluents: water / acetonitrile, 0.1% formic acid
I'd appreciate it if you included the unit after the number.

Sample records with RP-LC retention time:
Cc1ccc(NC(=O)N2CCC(N3CCN(Cc4ccccc4)C3=O)CC2)cc1C
843 s
CCCC(=O)NCCn1c(=O)n(Cc2ccc(C)cc2)c2cccnc21
759 s
CCOC(=O)CNC(=O)NCc1cccn1Cc1cc(C)ccc1C
888 s
CCS(=O)(=O)c1ccc2c(c1)N(Cc1nc(-c3ccc(F)cc3)no1)C(=O)CO2
902 s
Cc1ccc(-n2ccc(=O)c(-c3nc(-c4ccccc4)no3)n2)cc1
888 s

Would you be so kind as to report RP-LC retention time for each listed record?
1. CCN1CCn2cc(S(=O)(=O)Nc3cc(C)ccc3C)cc2C1=O
2. CN1CCN(S(=O)(=O)c2ccc(F)c(Cl)c2)CC1
3. C=CCN1CC(c2nc3ccccc3n2CC(O)COc2cccc(C)c2)CC1=O (centres undefined)
4. COc1ccc(OC)c(CNC(=O)C2CCN(Cc3cn(C)c4ccc(Cl)cc34)CC2)c1
5. O=C(Cn1c(=O)cc(C(=O)N2CCc3ccccc3C2)c2ccccc21)Nc1ccc2c(c1)OCCO2

1. 752 s
2. 530 s
3. 721 s
4. 717 s
5. 831 s
